B1: RHOBTB3 (parent)
chain: STTEGIQLAKELGATYLELHSLDD

# Variants of: B1
# Assay Procedure: protein stability index of a GFP-peptide fusion (GPS, HEK-293T) (PSI 1-6); higher = more stable;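 also: lentivirally expressed fusions sorted by FACS into six bins by GFP to DsRed ratio, PSI derived from sequencing read proportions per bin multiplied by bin number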
# Test Conditions: c terminus: a fixed tail appended
Quantity Kind: protein stability index

Input: Could you tell me which protein stability index is on file for I6Q ?
Output: 4.54

Input: Could you tell me which protein stability index is on file for E18G ?
Output: 3.72

Input: Could you tell me which protein stability index is on file for S21T ?
Output: 3.79

Input: Could you tell me which protein stability index is on file for Y16W ?
Output: 2.49

Input: Could you tell me which protein stability index is on file for S21N ?
Output: 4

Input: Could you tell me which protein stability index is on file for S1K ?
Output: 4.39

Input: Could you tell me which protein stability index is on file for T15D ?
Output: 4.41

Input: Could you tell me which protein stability index is on file for D23K ?
Output: 3.14

Input: Could you tell me which protein stability index is on file for L17E ?
Output: 4.73

Input: Could you tell me which protein stability index is on file for L8G ?
Output: 5.04

Input: Could you tell me which protein stability index is on file for K10W ?
Output: 1.5

Input: Could you tell me which protein stability index is on file for L22F ?
Output: 3.47

Input: Could you tell me which protein stability index is on file for D24K ?
Output: 3.02

Input: Could you tell me which protein stability index is on file for K10A ?
Output: 2.73

Input: Could you tell me which protein stability index is on file for D23W ?
Output: 2.92

Input: Could you tell me which protein stability index is on file for L19P ?
Output: 5.37

Input: Could you tell me which protein stability index is on file for D23C ?
Output: 1.87

Input: Could you tell me which protein stability index is on file for L22I ?
Output: 3.7

Input: Could you tell me which protein stability index is on file for A9L ?
Output: 1.19

Input: Could you tell me which protein stability index is on file for E4P ?
Output: 3.65

Input: Could you tell me which protein stability index is on file for T15N ?
Output: 4.72

Input: Could you tell me which protein stability index is on file for L8S ?
Output: 4.58
